- TGT: Prostaglandin G/H synthase 1 (Homo sapiens)
- Sequence (P23219 whole entry): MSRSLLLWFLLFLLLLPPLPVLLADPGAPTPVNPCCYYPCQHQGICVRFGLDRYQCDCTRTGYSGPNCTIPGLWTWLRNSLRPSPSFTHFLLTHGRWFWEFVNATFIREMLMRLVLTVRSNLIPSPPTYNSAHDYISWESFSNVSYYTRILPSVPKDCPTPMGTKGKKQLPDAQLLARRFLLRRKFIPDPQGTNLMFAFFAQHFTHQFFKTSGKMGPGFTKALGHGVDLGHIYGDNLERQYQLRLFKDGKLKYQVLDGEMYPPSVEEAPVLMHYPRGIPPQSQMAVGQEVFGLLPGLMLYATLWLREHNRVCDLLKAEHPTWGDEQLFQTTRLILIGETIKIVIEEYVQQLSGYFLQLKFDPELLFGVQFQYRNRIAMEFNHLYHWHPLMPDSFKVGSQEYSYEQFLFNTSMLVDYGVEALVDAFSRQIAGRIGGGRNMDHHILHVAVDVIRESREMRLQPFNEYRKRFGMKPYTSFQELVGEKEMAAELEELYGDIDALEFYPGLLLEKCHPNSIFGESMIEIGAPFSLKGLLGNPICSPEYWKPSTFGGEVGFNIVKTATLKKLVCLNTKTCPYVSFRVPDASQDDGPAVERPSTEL
- Format: microsomes
- Description: Inhibitory concentration was measured against Prostaglandin G/H synthase 1 in the sensitive U937 microsome assay
Attribute: IC50

[[record]]
molecule = "CC1(O)OC(=O)C(c2cc3ccccc3s2)=C1c1ccc(S(C)(=O)=O)cc1 (stereo not given)"
result = "> 100 µM"

[[record]]
molecule = "CC1(O)OC(=O)C(c2ccsc2)=C1c1ccc(S(C)(=O)=O)cc1 (stereo not given)"
result = "> 100 µM"

[[record]]
molecule = "CC1(O)OC(=O)C(Oc2ccc(F)c(F)c2)=C1c1ccc(S(C)(=O)=O)cc1 (stereo not given)"
result = "> 10 µM"

[[record]]
molecule = "CSc1ccc(C2=C(c3ccc(S(C)(=O)=O)cc3)C(C)(O)OC2=O)cc1 (stereo not given)"
result = "7 µM"


Considering CC1(O)OC(=O)C(Sc2ccccc2)=C1c1ccc(S(C)(=O)=O)cc1 (stereo not given) , its IC50 with Prostaglandin G/H synthase 1 (Homo sapiens) was recorded as > 10 µM

Considering CC1(O)OC(=O)C(c2ccc(O)cc2)=C1c1ccc(S(C)(=O)=O)cc1 (stereo not given) , its IC50 with Prostaglandin G/H synthase 1 (Homo sapiens) was recorded as > 10 µM

Considering CC1(O)OC(=O)C(c2cc(F)cc(F)c2)=C1c1ccc(S(C)(=O)=O)cc1 (stereo not given) , its IC50 with Prostaglandin G/H synthase 1 (Homo sapiens) was recorded as > 100 µM

Considering CC1(O)OC(=O)C(c2ccc(F)c(Cl)c2)=C1c1ccc(S(C)(=O)=O)cc1 (stereo not given) , its IC50 with Prostaglandin G/H synthase 1 (Homo sapiens) was recorded as 81 µM

Considering COC1(C)OC(=O)C(c2ccc(F)cc2)=C1c1ccc(S(C)(=O)=O)cc1 (stereo not given) , its IC50 with Prostaglandin G/H synthase 1 (Homo sapiens) was recorded as 14 µM

Considering CC1(O)OC(=O)C(c2ccc(Cl)c(Cl)c2)=C1c1ccc(S(C)(=O)=O)cc1 (stereo not given) , its IC50 with Prostaglandin G/H synthase 1 (Homo sapiens) was recorded as 35 µM

Source of measurements: ChEMBL document CHEMBL1136665
